assay: Phase 1 combination study: MK-2206 pharmacokinetics; type: in vivo, human; conditions: human, plasma, oral, first dose; arm 2 docetaxel 60 mg/m^2; MK-2206 135 mg Q3W; 3 patients; read-out: t 1/2, harmonic mean ± pseudo SD (converted)
Property label: half-life (h)
Give the value in h but do not write h after it.

The recorded half-life for `NC1(c2ccc(-c3nc4ccn5c(=O)[nH]nc5c4cc3-c3ccccc3)cc2)CCC1` is 106

----------
Test: Phase 1 combination study: MK-2206 pharmacokinetics
Type: in vivo, human
Conditions: human, plasma, oral, first dose; arm 1 carboplatin AUC 6 + paclitaxel 200 mg/m^2; MK-2206 90 mg Q3W; 5 patients; read-out: t 1/2, harmonic mean ± pseudo SD (converted)
Experimental: For the Q3W schedule, samples were taken in cycle 1 on days 1 to 3 as per the QOD schedule, then on days 5, 7, 15, and in cycle 2 on day 1. […] Docetaxel PK samples were analyzed in view of the DLT of febrile neutropenia observed in arm 2; however, PK parameters, such as half-life (t1/2) or systemic exposure of paclitaxel, docetaxel, carboplatin, and erlotinib, could not be evaluated due to the sparse blood sampling design used in this study. […]
Property label: half-life (h)
Give the value in h but do not write h after it.

The recorded half-life for NC1(c2ccc(-c3nc4ccn5c(=O)[nH]nc5c4cc3-c3ccccc3)cc2)CCC1 [MK-2206] is 79.5

----------
experiment: Phase 1 combination study: MK-2206 pharmacokinetics; format: in vivo, human; details: human, plasma, oral, first dose; arm 3 erlotinib 150 mg QD; MK-2206 135 mg QW; 6 patients; read-out: T max, median (range)
Property label: Tmax (h)
Give the value in h but do not write h after it.

The recorded Tmax for NC1(c2ccc(-c3nc4ccn5c(=O)[nH]nc5c4cc3-c3ccccc3)cc2)CCC1 [MK-2206] is 4

----------
assay: Phase 1 combination study: MK-2206 pharmacokinetics; type: in vivo, human; conditions: human, plasma, oral, first dose; arm 1 carboplatin AUC 6 + paclitaxel 200 mg/m^2; MK-2206 135 mg Q3W; 6 patients; read-out: t 1/2, harmonic mean ± pseudo SD (converted)
Property label: half-life (h)
Give the value in h but do not write h after it.

The recorded half-life for `NC1(c2ccc(-c3nc4ccn5c(=O)[nH]nc5c4cc3-c3ccccc3)cc2)CCC1` is 73

----------
Experiment: Phase 1 combination study: MK-2206 pharmacokinetics
Assay type: in vivo, human
Conditions: human, plasma, oral, first dose; arm 2 docetaxel 60 mg/m^2; MK-2206 200 mg Q3W; 4 patients; read-out: T max, median (range)
Method: For the Q3W schedule, samples were taken in cycle 1 on days 1 to 3 as per the QOD schedule, then on days 5, 7, 15, and in cycle 2 on day 1. […] Docetaxel PK samples were analyzed in view of the DLT of febrile neutropenia observed in arm 2; however, PK parameters, such as half-life (t1/2) or systemic exposure of paclitaxel, docetaxel, carboplatin, and erlotinib, could not be evaluated due to the sparse blood sampling design used in this study. […]
Property label: Tmax (h)
Give the value in h but do not write h after it.

The recorded Tmax for `NC1(c2ccc(-c3nc4ccn5c(=O)[nH]nc5c4cc3-c3ccccc3)cc2)CCC1` is 6

----------
experiment: Phase 1 combination study: MK-2206 pharmacokinetics; assay type: in vivo, human; conditions: human, plasma, oral, first dose; arm 2 docetaxel 60 mg/m^2; MK-2206 90 mg Q3W; 3 patients; read-out: T max, median (range)
Property label: Tmax
Put down the number, then write its unit next to it.

The recorded Tmax for `NC1(c2ccc(-c3nc4ccn5c(=O)[nH]nc5c4cc3-c3ccccc3)cc2)CCC1` is 4 h
